Target: T1, monkey CD19 on HEK293T-monkey CD19 cells (monkey)
T1 construct: whole, on cells
Assay: FACS on HEK293T-monkey CD19 cells
Procedure: After the digestion was terminated, the cells were washed 2 times with a PBS buffer; and for suspension cell Raji, the supernatant of the medium was discarded by directly centrifugation, and the cell pellet was washed 2 times with PBS. […] Data analysis was performed by software (FlowJo) to obtain the mean fluorescence intensity (MFI) of the cells. […]
measuredParameter: pEC50
Reminder that pEC50 is minus the log10 of a molar concentration.

As a guide, the following entries are already answered.
# binder, pEC50
rows = [
    ("F4.82.11 (antibody, human IgG1, V domains shown, human-murine chimeric antibody, human IgG1) VH: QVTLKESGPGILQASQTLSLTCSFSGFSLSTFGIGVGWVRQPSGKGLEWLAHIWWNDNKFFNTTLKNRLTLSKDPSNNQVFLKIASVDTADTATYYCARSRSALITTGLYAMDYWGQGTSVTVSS VL: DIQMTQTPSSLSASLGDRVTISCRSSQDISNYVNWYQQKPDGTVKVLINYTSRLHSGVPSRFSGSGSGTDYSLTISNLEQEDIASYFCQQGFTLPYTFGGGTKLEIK", 8.93),
    ("F5.3.6 (antibody, human IgG1, V domains shown, human-murine chimeric antibody, human IgG1) VH: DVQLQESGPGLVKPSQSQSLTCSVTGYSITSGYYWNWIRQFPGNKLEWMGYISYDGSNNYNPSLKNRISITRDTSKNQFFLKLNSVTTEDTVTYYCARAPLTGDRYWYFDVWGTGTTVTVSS VL: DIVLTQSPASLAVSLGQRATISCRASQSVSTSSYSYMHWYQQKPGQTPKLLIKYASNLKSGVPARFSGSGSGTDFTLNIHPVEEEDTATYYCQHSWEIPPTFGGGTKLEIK", 7.68),
    ("F5.11.2 (antibody, human IgG1, V domains shown, human-murine chimeric antibody, human IgG1) VH: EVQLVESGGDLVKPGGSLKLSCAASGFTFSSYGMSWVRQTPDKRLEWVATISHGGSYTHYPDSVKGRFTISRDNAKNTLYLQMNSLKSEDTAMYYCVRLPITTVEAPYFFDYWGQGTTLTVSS VL: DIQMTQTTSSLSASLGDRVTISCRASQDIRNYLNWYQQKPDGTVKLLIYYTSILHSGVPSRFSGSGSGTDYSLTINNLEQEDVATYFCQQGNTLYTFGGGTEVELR", 7.89),
    ("F3.13.2 (antibody, human IgG1, V domains shown, human-murine chimeric antibody, human IgG1) VH: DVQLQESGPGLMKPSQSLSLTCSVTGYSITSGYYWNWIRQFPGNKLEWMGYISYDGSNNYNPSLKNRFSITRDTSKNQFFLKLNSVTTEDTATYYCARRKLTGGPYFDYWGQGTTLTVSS VL: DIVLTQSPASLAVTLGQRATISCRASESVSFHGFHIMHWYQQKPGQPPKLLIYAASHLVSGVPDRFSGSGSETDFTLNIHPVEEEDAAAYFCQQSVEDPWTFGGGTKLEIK", 8.58),
    ("F5.10.6 (antibody, human IgG1, V domains shown, human-murine chimeric antibody, human IgG1) VH: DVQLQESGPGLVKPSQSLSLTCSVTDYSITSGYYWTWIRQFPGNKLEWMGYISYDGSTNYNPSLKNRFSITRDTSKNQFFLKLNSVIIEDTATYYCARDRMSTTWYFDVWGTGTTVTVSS VL: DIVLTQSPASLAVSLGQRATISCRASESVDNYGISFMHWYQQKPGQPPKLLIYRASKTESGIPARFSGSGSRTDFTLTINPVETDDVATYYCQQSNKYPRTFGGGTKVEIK", 8.30),
]

Q. Look up and report measured pEC50 for this entry: F4.107.12 (antibody, human IgG1, V domains shown, human-murine chimeric antibody, human IgG1) VH: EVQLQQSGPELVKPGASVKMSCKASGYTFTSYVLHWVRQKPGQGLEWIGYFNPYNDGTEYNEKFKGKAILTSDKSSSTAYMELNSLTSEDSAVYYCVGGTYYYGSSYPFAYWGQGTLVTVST VL: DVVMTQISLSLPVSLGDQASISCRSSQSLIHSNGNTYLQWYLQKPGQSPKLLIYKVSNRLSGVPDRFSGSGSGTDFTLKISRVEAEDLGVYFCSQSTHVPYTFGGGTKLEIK
A. 8.91

Q. Fill in reported pEC50 for this entry: F4.78.1 (antibody, human IgG1, V domains shown, human-murine chimeric antibody, human IgG1) VH: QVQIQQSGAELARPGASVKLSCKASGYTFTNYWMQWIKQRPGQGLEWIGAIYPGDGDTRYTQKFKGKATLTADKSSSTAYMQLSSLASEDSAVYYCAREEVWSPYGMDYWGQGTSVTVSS VL: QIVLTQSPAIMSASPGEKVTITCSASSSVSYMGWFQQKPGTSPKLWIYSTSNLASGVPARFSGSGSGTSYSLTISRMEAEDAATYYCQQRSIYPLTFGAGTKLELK
A. 9.14

Source: patent US20250042994A1
